The reported measurements were obtained from ChEMBL document CHEMBL2434899.

assay: Drug uptake in brain of Sprague-Dawley rat at 10 mg/kg, po after 2 hrs by LC-MS analysis; format: ADME, organism-based; parameters: dose 10 mg/kg, route oral; details: read-out: Drug uptake
PROPERTY MEASURED: concentration at 2 h (ng/mL)
Kindly provide the numeric value in ng/mL only, without the unit symbol.

What measured concentration at 2 h goes with CCCCC(=O)NC1CCN(c2ncnc3c2nc(-c2ccccc2Cl)n3-c2ccc(Cl)cc2)CC1 ?
71.5

----------
assay: Drug uptake in brain of Sprague-Dawley rat at 10 mg/kg, po after 24 hrs by LC-MS analysis; format: ADME, organism-based; set-up: dose 10 mg/kg, route oral; details: read-out: Drug uptake
PROPERTY MEASURED: concentration at 24 h (ng/mL)
Kindly provide the numeric value in ng/mL only, without the unit symbol.

What measured concentration at 24 h goes with CCCCC(=O)NC1CCN(c2ncnc3c2nc(-c2ccccc2Cl)n3-c2ccc(Cl)cc2)CC1 ?
5.35

----------
assay: Plasma concentration in Sprague-Dawley rat at 10 mg/kg, po after 1 hr by LC-MS analysis; format: ADME, organism-based; design: dose 10 mg/kg, route oral
PROPERTY MEASURED: concentration at 1 h (ng/mL)
Kindly provide the numeric value in ng/mL only, without the unit symbol.

What measured concentration at 1 h goes with CCCCC(=O)NC1CCN(c2ncnc3c2nc(-c2ccccc2Cl)n3-c2ccc(Cl)cc2)CC1 ?
730
